# System: blackgrass (Alopecurus myosuroides)
# run-description: Test C postemergence, blackgrass
# Assay type: in vivo
# run-parameters: 125 g ai/ha Postemergence; 0 is no effect, 100 is complete control
# binarize Plant response rating (0 to 100 scale), Blackgrass: threshold 30 inclusive, high side yes (1), low side no (0)

>>> label("Cc1c(N2CCCC(OC3CCC3)C2=O)cc(N(COC(=O)C(C)(C)C)S(=O)(=O)C(F)(F)F)c(C)c1F (centres unmarked)")
"no (0)"
>>> label("CCCC(=O)OCN(c1cc(N2CCC(OC3CC3)C2=O)c(C)cc1C)S(=O)(=O)C(F)(F)F (centres unmarked)")
"yes (1)"
>>> label("Cc1cc(C)c(N(C(=O)OC(C)C)S(=O)(=O)C(F)(F)F)cc1N1CCC(OC2CC2)C1=O (centres unmarked)")
"no (0)"
>>> label("Cc1cc(C)c(N2CCC(O)C2=O)cc1NS(=O)(=O)C(F)(F)F (centres unmarked)")
"yes (1)"
>>> label("Cc1c(N2CCC(OC3CC3)C2=O)cc(N(COC(=O)C(C)(C)C)S(=O)(=O)C(F)(F)F)c(C)c1F (centres unmarked)")
"yes (1)"
>>> label("Cc1c(NS(=O)(=O)C(F)(F)F)cc(N2CCC(OC3CC3)C2=O)c(C)c1F (centres unmarked)")
"yes (1)"
>>> label("Cc1cc(C)c(N2CC/C(=N\\O)C2=O)cc1NS(=O)(=O)C(F)(F)F")
"yes (1)"
